molecular target: Tyrosine-protein kinase BTK (Homo sapiens, UniProt Q06187, C481S); assay: Inhibition of recombinant human N-terminal His-tagged BTK C481S mutant expressed in baculovirus infected in Sf9 cells incubated for 1 hr by TR-FRET assay
Sequence (Q06187 2-659 C481S limits assumed): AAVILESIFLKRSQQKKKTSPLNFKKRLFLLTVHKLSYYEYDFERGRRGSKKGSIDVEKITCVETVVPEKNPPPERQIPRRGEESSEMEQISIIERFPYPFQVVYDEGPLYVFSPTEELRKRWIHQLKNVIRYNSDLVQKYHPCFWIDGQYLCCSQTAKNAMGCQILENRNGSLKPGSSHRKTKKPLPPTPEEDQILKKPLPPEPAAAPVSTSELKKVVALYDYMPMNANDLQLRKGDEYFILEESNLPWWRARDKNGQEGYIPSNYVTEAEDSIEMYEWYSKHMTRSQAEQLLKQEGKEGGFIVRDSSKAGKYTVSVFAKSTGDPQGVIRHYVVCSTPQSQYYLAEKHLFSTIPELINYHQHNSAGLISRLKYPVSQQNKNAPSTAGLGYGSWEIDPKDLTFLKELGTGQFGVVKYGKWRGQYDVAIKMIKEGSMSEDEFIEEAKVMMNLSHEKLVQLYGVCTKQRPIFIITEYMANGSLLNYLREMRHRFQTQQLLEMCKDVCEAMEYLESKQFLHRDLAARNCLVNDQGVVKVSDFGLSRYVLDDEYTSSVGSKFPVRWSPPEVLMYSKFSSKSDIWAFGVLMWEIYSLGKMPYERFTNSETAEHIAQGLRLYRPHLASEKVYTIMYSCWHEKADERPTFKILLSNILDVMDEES
pIC50: −log10 of the molar value. Square brackets hold non-standard residues; d marks the D form. Peptide text beside a SMILES is read from it. * marks the point of attachment. Oic = O=C(O)[C@@H]1C[C@@H]2CCCC[C@@H]2N1; Phe(4-CN) = N#Cc1ccc(C[C@H](N)C(=O)O)cc1; Acryloyl = C=CC(=O)*
For each of the compounds below, state its pIC50.

Any idea what its pIC50 is? The compound is "CNC(=O)[C@@H](Cc1ccc(C#N)cc1)NC(=O)[C@@H](NC(=O)[C@]1(C)CO1)[C@@H](C)OC(C)(C)C"
< 4.23

Any idea what its pIC50 is? The compound is "CNC(=O)[C@H]1Cc2c([nH]c3ccccc23)CN1C(=O)[C@@H](Cc1ccccc1)NC(=O)c1c[nH]c(C(N)=O)c1"
7.25

Any idea what its pIC50 is? The compound is "CNC(=O)[C@H]1Cc2c([nH]c3ccccc23)CN1C(=O)c1occc1CNc1ccc2nccnc2c1"
8.52

Any idea what its pIC50 is? The compound is C=CC(=O)N1[C@H](C(=O)N[C@@H](Cc2ccc(C#N)cc2)C(=O)NC)C[C@@H]2CCCC[C@@H]21 (Acryloyl-[Oic]-[Phe(4-CN)]-NHMe)
< 4.23

Any idea what its pIC50 is? The compound is "C=CC(=O)N1CCC[C@H](CC(=O)N2Cc3[nH]c4ccccc4c3C[C@@H]2C(=O)NC)C1"
< 4.23

Any idea what its pIC50 is? The compound is CNC(=O)[C@H]1Cc2c([nH]c3ccccc23)CN1C(=O)C[C@@H](Cc1cccc(F)c1)NC(=O)C1CO1 (some centres not stated)
< 4.23

Any idea what its pIC50 is? The compound is "CNC(=O)[C@@H](Cc1ccc(C#N)cc1)NC(=O)[C@@H](NC(=O)[C@@H]1CO1)c1ccccc1"
< 4.23
